measured on: Casein kinase II subunit alpha (Homo sapiens, UniProt P68400)
Sequence (P68400 whole entry): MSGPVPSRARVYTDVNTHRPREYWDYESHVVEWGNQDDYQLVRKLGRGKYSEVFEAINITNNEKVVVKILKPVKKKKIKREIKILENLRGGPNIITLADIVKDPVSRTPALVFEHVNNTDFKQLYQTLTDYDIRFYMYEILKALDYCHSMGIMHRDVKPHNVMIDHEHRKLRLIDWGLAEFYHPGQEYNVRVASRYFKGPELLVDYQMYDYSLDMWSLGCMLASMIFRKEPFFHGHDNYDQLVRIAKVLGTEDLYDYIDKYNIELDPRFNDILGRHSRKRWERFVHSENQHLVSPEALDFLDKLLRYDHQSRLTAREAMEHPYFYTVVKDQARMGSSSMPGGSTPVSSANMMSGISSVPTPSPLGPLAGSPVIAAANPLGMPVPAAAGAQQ
assay comment: Inhibition of CK2alpha (unknown origin)
value kind: Ki (µM)

[[record]]
molecule = "CCCCCCCCCCCC1=C(O)C(=O)C2=C(OC(N)=C(C#N)C2[N+](=O)[O-])C1=O (configuration not stated)"
output_unit = "µM"
measured_value = 0.22

[[record]]
molecule = "O=C1c2c(O)cccc2C(=O)c2c([N+](=O)[O-])ccc(O)c21"
output_unit = "µM"
measured_value = 0.8

[[record]]
molecule = "O=c1oc2c(O)c(O)cc3c(=O)oc4c(O)c(O)cc1c4c23 [ELLAGIC ACID]"
output_unit = "µM"
measured_value = 0.02

[[record]]
molecule = "Cc1c(Br)c(=O)oc2c(Br)c(O)ccc12"
output_unit = "µM"
measured_value = 0.06

[[record]]
molecule = "O=c1c2c(O)cccc2oc2c([N+](=O)[O-])ccc(O)c12"
output_unit = "µM"
measured_value = 0.78


a. O=c1oc2c(Br)c(O)ccc2c2ccc(O)cc12
b. O=c1c(O)c(-c2ccc(O)c(O)c2)oc2cc(O)ccc12 [FISETIN]
Task: Lab note: check whether a or b has the lower measured Ki. Provide the label of your selected option as the answer.
Output: a
(a: 0.007 µM, b: 0.35 µM)

----------
measured on: Casein kinase I delta/epsilon (Homo sapiens, UniProt P48730+P49674)
Sequence (P48730 whole entry): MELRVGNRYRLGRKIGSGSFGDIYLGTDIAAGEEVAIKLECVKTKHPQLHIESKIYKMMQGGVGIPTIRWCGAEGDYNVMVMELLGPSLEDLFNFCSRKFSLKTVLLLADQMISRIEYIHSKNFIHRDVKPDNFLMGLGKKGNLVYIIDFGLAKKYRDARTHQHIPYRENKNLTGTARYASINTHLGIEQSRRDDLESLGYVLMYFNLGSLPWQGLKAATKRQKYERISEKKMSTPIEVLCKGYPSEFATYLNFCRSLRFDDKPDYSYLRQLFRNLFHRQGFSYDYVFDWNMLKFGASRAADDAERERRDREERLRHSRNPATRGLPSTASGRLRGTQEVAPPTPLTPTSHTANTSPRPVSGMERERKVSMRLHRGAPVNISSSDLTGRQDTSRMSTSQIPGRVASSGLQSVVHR
Sequence (P49674 whole entry): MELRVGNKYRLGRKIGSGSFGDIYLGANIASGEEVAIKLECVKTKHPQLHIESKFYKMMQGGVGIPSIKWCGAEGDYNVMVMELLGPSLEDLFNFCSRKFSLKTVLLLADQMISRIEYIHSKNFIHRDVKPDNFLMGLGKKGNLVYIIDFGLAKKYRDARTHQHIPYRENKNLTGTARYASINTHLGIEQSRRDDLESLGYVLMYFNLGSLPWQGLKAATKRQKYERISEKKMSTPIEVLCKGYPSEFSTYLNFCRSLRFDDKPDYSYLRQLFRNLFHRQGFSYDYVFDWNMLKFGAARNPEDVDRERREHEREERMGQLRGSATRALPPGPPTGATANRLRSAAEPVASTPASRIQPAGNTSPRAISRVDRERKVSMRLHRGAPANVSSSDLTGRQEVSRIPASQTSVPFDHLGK
assay comment: Inhibition of CK1delta/CK1epsilon (unknown origin)
value kind: pIC50
Reminder that pIC50 means the negative base-10 logarithm of the concentration expressed in mol/L.

Task: Report pIC50 for COc1cc(OC)c(/C=C2\C(=O)Nc3ccccc32)c(OC)c1 tested on Casein kinase I delta/epsilon (Homo sapiens, UniProt P48730+P49674).
Output: 6.00
